Tested on: SF-295 CNS
Measurement Protocol: NCI-60 one-dose screen, 48 h (100 = growth as untreated, 0 = no growth, -100 = all killed)
Particulars: 10 µM unless noted
About 83,000 compounds went through this panel and 20% of them were active in at least one assay; those are over-represented in the sample as a whole.
Would you please tag the item met when its growth is 70% or above, and not met when it is below?

growth >= 70% for C=CCOC(=O)Nc1cccn([C@H](Cc2ccccc2)C(=O)NCCC(C)C)c1=O ? met

Is the recorded value of growth equal to or greater than 70% for this molecule? CCN(CC)CCCCCNc1cc(OC(=O)c2ccc(Cl)cc2)cc2cccnc12 met

Please tell me: is the molecule O=C(Nc1ccc(Oc2cccc(Cl)c2)c(Cl)c1)c1cnccn1 at or over 70% in terms of growth? not met

Hello, I need to know if Nc1c(C(=O)Nc2ccccc2F)sc2nc3c(cc12)CCCC3 has measured growth not below 70%. Thanks! not met

Decide: growth of C#Cc1c2c(c(OC)c3c1OCO3)[C@H]([C@H]1OC(=O)c3c1ccc(OC)c3OC)N(C)CC2 >= 70%? met

Decide: growth of O=c1[nH]c(Cc2nc3ccccc3s2)nc2cc(Br)ccc12 >= 70%? met

Please check the record COc1ccc(-c2cc(-c3cccnc3)nc3sc4c(=O)[nH]c(-c5ccc(Cl)cc5)nc4c23)cc1OC and state if its growth is at or above 70%. met

Quick check: does CC(C)=CCCC(C)c1ccc(C)c2c1OCN(CCCCCO)C2 (stereo not given) have growth greater than or equal to 70%? met

Confirm if growth reported for the molecule CN1CCN(C(=O)c2ccc(NC(=O)c3cc4c(nn3)NCCN4Cc3cc(Cl)ccc3Cl)cc2)CC1 is 70% or above. not met

Quick check: does COc1cc2c(c(OC)c1OC)CCC(c1cccc(C(=O)Nc3ccc(C#N)cc3)c1)O2 (stereo not given) have growth greater than or equal to 70%? not met

----------
I'd be grateful if you could share measured growth for these entries.
Tested on: DU-145 prostate
Measurement Protocol: NCI-60 one-dose screen, 48 h (100 = growth as untreated, 0 = no growth, -100 = all killed)
Particulars: 10 µM unless noted
This is part of a sample that, as a whole, favours compounds with a hit. Of some 83,000 tested, about 20% had one in any assay.
Give just the number in %; leave the unit off.

Query the reported growth for DU-145 prostate; item: Cn1cc(-c2csc(-c3cn(C(=O)OC(C)(C)C)c4ccc(Br)cc34)n2)c2ccnc(Cl)c21 68.3

Query the reported growth for DU-145 prostate; item: O=C1c2ccccc2-c2c1c1c(=O)[nH]c3ccccc3c1n2Cc1ccccc1 79

Lab note: need growth for Cn1c(=O)c2nc(/C=C/c3ccccc3)c(=O)[nH]c2n(C)c1=S on DU-145 prostate, anyone have it? 113

Form: Entry = CCOC(=O)C1=C(c2ccccc2)N=C2SC=C(c3ccc(Cl)cc3)N2C1c1ccc(Cl)cc1 (centres undefined) | System = DU-145 prostate | growth = ____ 87.7

API: value(readout=growth, system=DU-145 prostate) for record CN(C)c1ccc(C(=O)OCCCCCCl)cc1 96.4

Notebook entry, DU-145 prostate assay: growth of CCC(=C(c1ccc(OCCN2CCCCC2)cc1)c1ccc(OCCN2CCCCC2)cc1)c1ccc(Cl)cc1 = ? -89.8

Record COC(=O)/C=C1/SC(=Nc2ccc(C(F)(F)F)cc2)N(CCc2c[nH]c3ccc(O)cc23)C1=O : what is its growth with DU-145 prostate? 12.7

Query growth on DU-145 prostate for O=C(N(c1ccccc1)c1ccccc1)n1cc(I)c2nc(Cl)nc(Cl)c21 43.3

Field: growth (DU-145 prostate). Entry: NS(=O)(=O)c1ccc(N=Nc2c(O)n(Cc3ccccc3)c3ccc(Cl)cc23)cc1 87.3

----------
Tested on: M14 melanoma
Measurement Protocol: NCI-60 one-dose screen, 48 h
Particulars: 10 µM unless noted
Compounds without any hit were thinned out: in the full panel of roughly 83,000, 20% have a hit. Active and inactive are the calls of the source. How the source made its calls: active means growth percent below 10; inactive means the rest.
Answer with one of the outcomes label 1 = active, label 0 = inactive

Which outcome was assigned to Cn1c(=O)c2nc(/C=C/c3ccccc3)c(=O)[nH]c2n(C)c1=S in this test? label 0

# outcome recorded in this test, key = COc1ccc(-c2nn(-c3cccc(Cl)c3)cc2-c2cc(-c3ccc(Br)cc3)nc(N)n2)cc1 label 0

What call does the record list for CCOC(=O)c1csc(NC(=O)COc2ccc(/C=C3\Oc4ccccc4C3=O)cc2)n1 ? label 0

Tell me the recorded outcome of this test for CN1C(=O)/C(=C\c2nc([P+](c3ccccc3)(c3ccccc3)c3ccccc3)c(N3CCOCC3)o2)SC1=S . label 0

Outcome? O=C(/C=C/c1cccc(Cl)c1)c1ccc(Nc2nc(Nc3ccc(F)cc3)nc(Nc3ccc(Cl)cc3)n2)cc1 label 0

Please share the test call associated with O=C(CN1CCOCC1)Nc1nc(-c2cc3ccccc3oc2=O)cs1 . label 0

Given CC1(C)CC(=O)C2=C(C1)N(c1ccc(OC(F)(F)F)cc1)C(N)=C(C#N)C2c1ccc(Br)cc1F (stereo not drawn) , state the outcome it received in this test. label 0

Query: recorded result category for O=C(/C=C(/C=C/c1ccc2[nH]ccc2c1)OB(F)F)/C=C/c1ccc2[nH]ccc2c1 in this test label 1

Look up the recorded call for COC1=CC(c2ccc[nH]2)=N/C1=C\c1[nH]c(C)c(CC(=O)NCc2ccccc2)c1C in this test. label 1

For N#Cc1ccc(O)c(C2=NCC(c3cccc(Oc4ccccc4)c3)O2)c1 (stereo not drawn) , what call appears in the results of this test? label 1

Called result for NC(=O)c1cccc(-n2ccc3cc(NC(=O)c4ccc(N5CCOCC5)c(C(F)(F)F)c4)ccc32)n1 label 0

Can you look up the reported call for CC(C)=CC(=O)OCC(=O)O[C@@H]1C[C@]2(C(C)C)O[C@@]1(C)[C@@H]1CC[C@@H](C)[C@H]1[C@@H]2OC(=O)/C=C/c1ccccc1 for me? label 0

// return assay outcome for Cc1ccccc1/C=C/C(=O)c1cccc(OCCCOc2cccc(C(=O)/C=C/c3ccccc3C)c2)c1 label 0

# fetch the recorded call for COc1c(C(=O)Nc2ccc(C)c(Br)c2)ccc2ccccc12 here label 0

Entry CCc1ccc(CCCC(=O)O)cc1 : call = ? label 0

Check the results log: what was the call for COC1/C=C/OC2(C)Oc3c(C)c(O)c4c(O)c(c(/C=N/Nc5ccc([N+](=O)[O-])cc5[N+](=O)[O-])c(O)c4c3C2=O)NC(=O)C(C)=C/C=C/C(C)C(O)C(C)C(O)C(C)C(OC(C)=O)C1C (stereo not drawn) ? label 0

Hi, sorry to bother you, what did the test record for OCCn1cc(-c2nc(-c3c[nH]c4ncccc34)cs2)c2ccccc21 ? label 0

I would be grateful if you could indicate the recorded call for COc1cc2c(cc1OCCCN1CCN(CCCOc3cc4c(cc3OC)C(=O)N3CC(F)(F)C[C@H]3C=N4)CC1)N=C[C@@H]1CC(F)(F)CN1C2=O . label 0

----------
Test system: NCI-H322M lung
Measurement Protocol: NCI-60 one-dose screen, 48 h (100 = growth as untreated, 0 = no growth, -100 = all killed)
Particulars: 10 µM unless noted
This is part of a sample that, as a whole, favours compounds with a hit. Of some 83,000 tested, about 20% had one in any assay.
Quantity Kind: growth (%)
State just the number; it will be interpreted in %.

Name the recorded growth for CC(C)(Sc1cc(C(C)(C)C)c(O)c(C(C)(C)C)c1)Sc1cc(C(C)(C)C)c(OC(=O)CCCC(=O)O)c(C(C)(C)C)c1 . 60.4

So what's the measured growth for this one? OB1OCc2cc(/C=C/c3cccc(C(F)(F)F)c3)ccc21 20.7

What growth value was documented for this compound, Cc1cc(S(=O)(=O)/N=C(\N)n2nc(C)c(C)c2C)c(SCc2ccccc2)cc1Cl ? 86.2

Given CCOC(=O)C#Cc1c(C(=O)OCC)nnn1Cc1ccc([N+](=O)[O-])cc1 , state its recorded growth. 100

Give the measured growth of CCN1C(=O)N(CC)C2C1NN=c1s/c(=C\c3ccccc3F)c(=O)n12 (stereo not given) . 42.6

# query: growth of entry CCOC(=O)n1ccn(C)c1=S 89.1

Please give the measured growth for this compound: COc1cc2nc3cc([N+](=O)[O-])ccc3c(NCCNCC(C)O)c2cc1OC (stereo not given) -11.9

For the compound shown here, C=CCn1c(C)nc2ccc(Nc3nc(Nc4ccc5nc(C)n(CC=C)c5c4)c4ccccc4n3)cc21 , give the reported growth. -13.4

Recorded growth for Cc1ccc(-c2nc([P+](c3ccccc3)(c3ccccc3)c3ccccc3)c(S(=O)(=O)c3ccc(C)cc3)o2)cc1 , please? 57.2

Fill blank: measured growth of the compound O=C1/C(=C/c2ccccc2O)CC/C1=C\c1ccccc1O is ____. 96.4
